- experimental-target: his-labeled human IL-13 (immunogen A) (human) (UniProt P35225)
- assay-name: SPR (Biacore)
pKd: −log10 of the molar value.
property-name: pKd

* c29D9H8 (mouse-human chimeric IL-13 antibody) (antibody, V domains shown) VH: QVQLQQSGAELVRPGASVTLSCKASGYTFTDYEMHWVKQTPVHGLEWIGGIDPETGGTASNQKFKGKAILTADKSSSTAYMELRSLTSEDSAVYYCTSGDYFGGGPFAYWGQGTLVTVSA VL: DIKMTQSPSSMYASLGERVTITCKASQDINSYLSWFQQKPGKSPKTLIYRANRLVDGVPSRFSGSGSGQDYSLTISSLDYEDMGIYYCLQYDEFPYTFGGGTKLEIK | > 7.05
* c28A2E11 (mouse-human chimeric IL-13 antibody) (antibody, V domains shown) VH: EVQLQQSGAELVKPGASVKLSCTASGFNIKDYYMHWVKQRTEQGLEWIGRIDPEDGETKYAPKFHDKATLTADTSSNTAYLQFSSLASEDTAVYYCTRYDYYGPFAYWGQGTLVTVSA VL: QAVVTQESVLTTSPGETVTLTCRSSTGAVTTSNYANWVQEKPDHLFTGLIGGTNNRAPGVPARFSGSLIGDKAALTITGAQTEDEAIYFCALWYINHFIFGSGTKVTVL | > 7.05
* c70F10A10 (mouse-human chimeric IL-13 antibody) (antibody, V domains shown) VH: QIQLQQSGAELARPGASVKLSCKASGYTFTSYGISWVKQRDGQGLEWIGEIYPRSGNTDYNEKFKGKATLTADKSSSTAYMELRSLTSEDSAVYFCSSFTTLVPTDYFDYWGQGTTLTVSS VL: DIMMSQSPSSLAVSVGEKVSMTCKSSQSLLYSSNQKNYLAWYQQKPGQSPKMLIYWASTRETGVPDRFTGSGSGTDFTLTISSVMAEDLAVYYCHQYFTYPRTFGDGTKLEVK | > 7.05
